# System name: Integrin alpha-IIb/beta-3 (Homo sapiens, UniProt P05106+P08514)
# Sequence (P05106 27-788 limits assumed): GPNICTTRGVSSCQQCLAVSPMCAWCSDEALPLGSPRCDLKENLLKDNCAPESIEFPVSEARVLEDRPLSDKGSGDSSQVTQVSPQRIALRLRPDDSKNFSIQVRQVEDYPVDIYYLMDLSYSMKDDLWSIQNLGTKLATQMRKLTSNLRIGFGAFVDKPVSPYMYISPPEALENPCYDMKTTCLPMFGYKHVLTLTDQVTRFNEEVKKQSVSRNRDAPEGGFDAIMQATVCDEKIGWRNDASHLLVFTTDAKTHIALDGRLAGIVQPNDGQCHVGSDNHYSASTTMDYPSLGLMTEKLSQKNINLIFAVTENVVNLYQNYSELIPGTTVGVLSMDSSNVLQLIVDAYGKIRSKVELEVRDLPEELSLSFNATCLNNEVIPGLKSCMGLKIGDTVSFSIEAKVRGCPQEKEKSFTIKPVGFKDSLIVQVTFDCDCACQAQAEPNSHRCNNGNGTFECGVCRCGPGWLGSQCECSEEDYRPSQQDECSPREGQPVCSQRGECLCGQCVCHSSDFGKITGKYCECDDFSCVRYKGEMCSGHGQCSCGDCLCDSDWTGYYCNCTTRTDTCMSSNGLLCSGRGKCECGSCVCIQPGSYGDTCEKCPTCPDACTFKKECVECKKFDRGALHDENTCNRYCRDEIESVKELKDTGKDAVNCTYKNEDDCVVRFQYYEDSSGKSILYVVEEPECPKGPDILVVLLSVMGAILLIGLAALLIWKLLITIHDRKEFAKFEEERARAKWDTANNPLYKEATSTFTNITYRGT
# Sequence (P08514 32-887 limits assumed): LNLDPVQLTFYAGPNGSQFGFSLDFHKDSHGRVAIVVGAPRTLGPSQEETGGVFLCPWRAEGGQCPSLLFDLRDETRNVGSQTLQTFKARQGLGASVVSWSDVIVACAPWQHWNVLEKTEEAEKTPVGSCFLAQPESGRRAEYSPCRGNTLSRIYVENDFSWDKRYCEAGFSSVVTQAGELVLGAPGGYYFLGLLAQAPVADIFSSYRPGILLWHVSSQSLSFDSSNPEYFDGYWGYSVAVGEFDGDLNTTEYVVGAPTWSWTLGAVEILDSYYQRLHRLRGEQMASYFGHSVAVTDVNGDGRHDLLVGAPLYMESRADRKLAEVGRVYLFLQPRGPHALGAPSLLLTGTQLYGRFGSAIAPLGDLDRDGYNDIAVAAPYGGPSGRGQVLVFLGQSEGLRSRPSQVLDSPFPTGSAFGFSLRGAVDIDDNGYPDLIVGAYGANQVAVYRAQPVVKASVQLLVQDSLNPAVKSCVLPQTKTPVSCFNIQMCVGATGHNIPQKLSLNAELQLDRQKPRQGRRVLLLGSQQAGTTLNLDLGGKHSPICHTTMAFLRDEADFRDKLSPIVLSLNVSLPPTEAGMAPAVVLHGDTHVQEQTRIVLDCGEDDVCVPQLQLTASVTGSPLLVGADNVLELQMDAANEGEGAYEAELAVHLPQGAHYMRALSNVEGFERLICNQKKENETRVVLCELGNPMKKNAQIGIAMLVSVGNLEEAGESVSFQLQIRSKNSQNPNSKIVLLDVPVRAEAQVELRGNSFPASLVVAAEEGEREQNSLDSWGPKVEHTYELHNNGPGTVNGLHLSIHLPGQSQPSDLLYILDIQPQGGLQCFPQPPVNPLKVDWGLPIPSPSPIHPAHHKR
# Sequence (P08514 891-1039 limits assumed): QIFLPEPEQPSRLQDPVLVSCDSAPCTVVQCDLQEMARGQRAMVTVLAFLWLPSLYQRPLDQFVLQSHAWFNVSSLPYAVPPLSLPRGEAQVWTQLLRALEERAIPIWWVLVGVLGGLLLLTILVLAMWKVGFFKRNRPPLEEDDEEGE
# Measurement protocol: Inhibition of integrin alpha2bbeta3 receptor by ELISA
pIC50: −log10 of the molar value.
Readout label: pIC50

Consider the following illustrative entries.
>>> result_value("O=C(N[C@@H](Cc1ccc(N2CCC(CNc3ccccn3)CC2)cc1)C(=O)O)c1ccccc1")
4.83
>>> result_value("Cc1cc(C)c(C(=O)NC(Cc2ccc(N3CCC(CNc4ccccn4)CC3)cc2)C(=O)O)c(C)c1 (stereo not given)")
4.40
>>> result_value("CCc1cc(F)cc(C)c1C(=O)NC(Cc1ccc(N2CCC(CNc3ccccn3)CC2)cc1)C(=O)O (stereo not given)")
4.14
>>> result_value("CCc1cccc(C)c1C(=O)NC(Cc1ccc(N2CCC(CNc3ccccn3)CC2)cc1)C(=O)O (stereo not given)")
4.06
>>> result_value("CCc1cc(F)cc(C)c1C(=O)N[C@@H](Cc1ccc(N2CCC(CNc3ccccn3)CC2)cc1)C(=O)O")
3.92

[a] O=C(O)[C@H](Cc1ccc(N2CCC(CNc3ccccn3)CC2)cc1)N1Cc2ccccc2C1=O
[b] CCc1cc(F)cc(C)c1C(=O)N[C@H](Cc1ccc(N2CCC(CNc3ccccn3)CC2)cc1)C(=O)O
[c] Cc1ccnc(NCC2CCN(c3ccc(CC(NC(=O)c4c(C)cc(C)cc4C)C(=O)O)cc3)CC2)c1 (stereo not given)
*Q* Sort low-to-high on pIC50, please. Labels, ranked as asked.
*A* b, a, c
